TARGET SYSTEM: intracellular GCN2 (phosphorylation of the GCN2 substrate eIF2α) (Homo sapiens, UniProt Q9P2K8)
Sequence (Q9P2K8 whole entry): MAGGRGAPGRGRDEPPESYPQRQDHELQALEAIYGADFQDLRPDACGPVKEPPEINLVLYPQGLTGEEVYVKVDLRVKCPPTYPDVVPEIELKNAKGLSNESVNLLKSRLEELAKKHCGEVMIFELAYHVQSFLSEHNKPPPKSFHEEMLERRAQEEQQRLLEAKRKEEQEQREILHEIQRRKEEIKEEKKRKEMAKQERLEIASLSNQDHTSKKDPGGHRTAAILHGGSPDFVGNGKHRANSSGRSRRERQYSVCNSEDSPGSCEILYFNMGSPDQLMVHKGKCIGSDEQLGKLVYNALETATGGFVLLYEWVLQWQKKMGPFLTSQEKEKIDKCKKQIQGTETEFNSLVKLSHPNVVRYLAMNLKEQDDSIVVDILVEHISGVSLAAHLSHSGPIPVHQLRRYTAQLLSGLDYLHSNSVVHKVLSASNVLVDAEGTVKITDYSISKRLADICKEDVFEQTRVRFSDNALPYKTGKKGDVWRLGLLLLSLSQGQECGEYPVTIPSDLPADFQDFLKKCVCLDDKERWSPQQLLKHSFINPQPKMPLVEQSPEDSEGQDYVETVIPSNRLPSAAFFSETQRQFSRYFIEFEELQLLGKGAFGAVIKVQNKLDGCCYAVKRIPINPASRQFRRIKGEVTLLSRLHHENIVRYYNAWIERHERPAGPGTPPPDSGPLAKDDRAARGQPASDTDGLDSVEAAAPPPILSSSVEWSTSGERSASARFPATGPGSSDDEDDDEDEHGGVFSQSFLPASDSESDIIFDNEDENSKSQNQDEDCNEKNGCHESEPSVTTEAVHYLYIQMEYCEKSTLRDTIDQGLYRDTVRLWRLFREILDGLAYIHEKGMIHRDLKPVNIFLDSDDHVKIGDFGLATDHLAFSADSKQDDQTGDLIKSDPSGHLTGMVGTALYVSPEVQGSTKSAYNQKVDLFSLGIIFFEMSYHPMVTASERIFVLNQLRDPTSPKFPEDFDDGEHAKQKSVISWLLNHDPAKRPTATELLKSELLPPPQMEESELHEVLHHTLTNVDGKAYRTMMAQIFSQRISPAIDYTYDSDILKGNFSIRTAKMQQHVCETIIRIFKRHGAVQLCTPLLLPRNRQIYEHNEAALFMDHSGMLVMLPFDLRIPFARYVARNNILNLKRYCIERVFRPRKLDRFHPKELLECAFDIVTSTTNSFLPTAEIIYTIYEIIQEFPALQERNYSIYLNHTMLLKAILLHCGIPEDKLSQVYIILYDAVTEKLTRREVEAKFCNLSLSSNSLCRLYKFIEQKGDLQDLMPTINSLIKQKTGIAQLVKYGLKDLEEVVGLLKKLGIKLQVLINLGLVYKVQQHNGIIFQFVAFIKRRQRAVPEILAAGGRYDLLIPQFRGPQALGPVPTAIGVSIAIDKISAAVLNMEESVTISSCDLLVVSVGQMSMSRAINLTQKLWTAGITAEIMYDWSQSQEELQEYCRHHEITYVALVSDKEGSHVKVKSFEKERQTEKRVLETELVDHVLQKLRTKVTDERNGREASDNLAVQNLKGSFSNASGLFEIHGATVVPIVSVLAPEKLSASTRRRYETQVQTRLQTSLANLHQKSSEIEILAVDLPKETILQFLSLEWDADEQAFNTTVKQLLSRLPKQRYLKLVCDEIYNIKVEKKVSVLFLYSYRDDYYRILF
TEST PROTOCOL: GCN2 cellular inhibition assay (AlphaScreen SureFire P-eIF2α Ser51, borrelidin-treated U2OS cells)
Type: cell-based
MEASUREMENT CONTEXT: compounds of Formula II; biomarker assay, phosphorylated eIF2α Ser51 in borrelidin-treated U2OS cells
pIC50: −log10 of the molar value.
READOUT: pIC50

// known answers, use as guide
Ask | // pIC50 lookup, key: CC1C(CNS(C)(=O)=O)CCCN1c1cc(-c2cnc3ccc(C(F)F)nn23)ncn1 (single isomer, unassigned) [II-264]
Reply | < 5.30

Ask | // pIC50 lookup, key: FC(F)c1ccc2ncc(-c3cc(N4CCCC(Cn5cncn5)C4)ncn3)n2n1 (stereo not shown) [II-339]
Reply | 5.30 to 6.30

Ask | // pIC50 lookup, key: CCC1CC(N=S(C)(C)=O)CN(c2cc(-c3cnc4ccc(C(F)F)nn34)ncn2)C1 (single isomer, unassigned) [II-650]
Reply | > 6.30

Items follow; give pIC50 for each.
1. CC1CCC(N=S(C)(C)=O)CN1c1cc(-c2cnc3ccc(C(F)F)nn23)ncn1 (stereo not shown) [II-696]
2. CC(=O)N1CCN(c2cc(-c3cnc4ccc(C)nn34)ccn2)CC1 [II-193]
3. CC1C(CS(N)(=O)=O)CCCN1c1cc(-c2cnc3ccc(C(F)F)nn23)ncn1 (stereo not shown) [II-424]

Reply |
["< 5.30", "< 5.30", "> 6.30"]

Items follow; give pIC50 for each.
1. CS(=O)(=O)NCC1CCCN(c2cc(-c3cnc4ccc(C(F)F)nn34)cc(C#N)n2)C1 (stereo not shown) [II-130]
2. CC1C(CNS(C)(=O)=O)N(C2CC2)CCN1c1cc(-c2cnc3ccc(C(F)F)nn23)ncn1 (stereo not shown) [II-463]
3. CS(=O)(=O)NCC1CCCN(c2cc(-c3cnc4ccc(C(F)F)nn34)cc(N3CC4(CCN4)C3)n2)C1 (stereo not shown) [II-67]
4. CC1CCC(CNS(C)(=O)=O)CN1c1cc(-c2cnc3ccc(C(F)F)nn23)ncn1 (stereo not shown) [II-248]
5. COc1cc(-c2cnc3ccc(C(F)F)nn23)cc(N2CCC[C@H](CNS(C)(=O)=O)C2)n1 [II-120]
6. CC1CC(N=S(C)(C)=O)CN(c2cc(-c3cnc4ccc(C(F)F)nn34)ccn2)C1 (stereo not shown) [II-716]
7. Cc1ccc2ncc(-c3ccnc(N4CCCC(CNS(C)(=O)=O)C4)c3)n2n1 (stereo not shown) [II-183]

Reply |
1: < 5.30; 2: > 6.30; 3: > 6.30; 4: 5.30 to 6.30; 5: < 5.30; 6: > 6.30; 7: 5.30 to 6.30
